tested system: RARα (Homo sapiens, UniProt P10276)
Sequence (P10276 whole entry, species assumed): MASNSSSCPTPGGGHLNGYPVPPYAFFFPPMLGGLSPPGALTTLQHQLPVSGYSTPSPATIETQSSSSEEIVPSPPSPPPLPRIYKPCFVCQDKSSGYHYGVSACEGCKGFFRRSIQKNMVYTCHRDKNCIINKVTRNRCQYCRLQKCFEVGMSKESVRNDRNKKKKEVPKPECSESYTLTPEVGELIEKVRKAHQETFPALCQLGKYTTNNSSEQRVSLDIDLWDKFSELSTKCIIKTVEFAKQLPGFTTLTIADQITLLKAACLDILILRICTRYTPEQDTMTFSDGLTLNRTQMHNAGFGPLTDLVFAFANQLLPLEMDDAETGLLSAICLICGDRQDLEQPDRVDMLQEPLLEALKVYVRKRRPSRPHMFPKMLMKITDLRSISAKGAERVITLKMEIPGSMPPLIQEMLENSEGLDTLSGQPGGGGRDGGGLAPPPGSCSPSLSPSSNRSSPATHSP
protocol description: ligand binding assay
condition info: expressed in Ki numbers, read-out: RAR Binding α
Ki vs 9 µM: less than gives satisfied; not less than gives not satisfied.

Qu. Ki under 9 µM? Item: Cc1ccc(C2=CC(C)(C)c3cc(C(/C=C/c4ccc(C(=O)O)cc4F)=N/O)ccc32)cc1 [Compound 18a]
Ans. not satisfied

Qu. In the record for Cc1ccc(C2=CC(C)(C)c3cc(C(/C=C/c4ccc(C(=O)O)cc4F)=N\O)ccc32)cc1 [Compound 18b] , is Ki less than 9 µM?
Ans. not satisfied

Qu. Strictly below 9 µM: is that where Ki of Cc1ccc(C2=CCC(C)(C)c3cc(C(/C=C/c4ccc(C(=O)O)cc4F)=N/O)ccc32)cc1 sits?
Ans. not satisfied

Qu. A record lists Cc1ccc(C2=CCC(C)(C)c3cc(C(/C=C/c4ccc(C(=O)O)cc4)=NO)ccc32)cc1 (racemic) . Is its Ki below 9 µM?
Ans. satisfied

Qu. Hello, I'm reviewing records and need to know if Ki of Cc1ccc(C2=CC(C)(C)c3cc(C(/C=C/c4ccc(C(=O)O)cc4)=N\O)ccc32)cc1 [Compound 16b] is below 9 µM. Could you check?
Ans. satisfied

====

tested system: RARγ (Homo sapiens, UniProt P13631)
Sequence (P13631 185-419 limits assumed): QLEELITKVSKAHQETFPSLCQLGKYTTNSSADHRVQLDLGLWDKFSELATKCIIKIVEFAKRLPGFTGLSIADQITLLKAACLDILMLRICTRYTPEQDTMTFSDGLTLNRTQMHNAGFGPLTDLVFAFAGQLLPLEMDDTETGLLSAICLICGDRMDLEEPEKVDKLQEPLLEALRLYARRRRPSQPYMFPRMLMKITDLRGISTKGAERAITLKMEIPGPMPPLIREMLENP
protocol description: chimeric receptor transactivation assay (agonist-like activity)
Format: cell-based
Design: RAR EC50 (nM) (% Efficiency) γ
condition info: read-out: RAR EC50 (nM) (% Efficiency) γ
Consider the following compounds; for each one, report its EC50.

Form field EC50, entry Cc1ccc(C2=CC(C)(C)c3cc(C(/C=C/c4ccc(C(=O)O)cc4)=N\O)ccc32)cc1 [Compound 16b] : > 10000 nM

Entry Cc1ccc(C2=CCC(C)(C)c3cc(C(/C=C/c4ccc(C(=O)O)cc4F)=N/O)ccc32)cc1 [Compound 9a] — recorded EC50 = > 10000 nM

The recorded EC50 for Cc1ccc(C2=CC(C)(C)c3cc(C(/C=C/c4ccc(C(=O)O)cc4F)=N/O)ccc32)cc1 [Compound 18a] is > 10000 nM

# compound Cc1ccc(C2=CCC(C)(C)c3cc(C(/C=C/c4ccc(C(=O)O)cc4)=N\O)ccc32)cc1 [Compound 7b] ; its EC50 = > 10000 nM

These measurements were taken from patent US7432388B2.
